Hey, just so you know, these numbers are from paper PMC4183595.

Experiment: Rat in vivo pharmacokinetics study after oral administration of product A, B or C
Design: species or system Male Sprague-Dawley (SD) rats
Settings: male, Sprague-Dawley, rat, plasma, po, 10 mL·kg^−1, rats, oral product C, 10 mL·kg^−1
MEASURED_ATTRIBUTE: Tmax (min)
Give bare numbers, in min.

Please review the following examples before continuing.
COMPOUND: O=C(/C=C/c1ccc(O)c(O)c1)O[C@H]1[C@H](O)C[C@](O)(C(=O)O)C[C@H]1O [Cryptochlorogenic acid]
Tmax [min]: 10

COMPOUND: O=C(/C=C/c1ccc(O)c(O)c1)O[C@@H]1C[C@@](O)(C(=O)O)C[C@@H](O)[C@@H]1O [Neochlorogenic acid]
Tmax [min]: 10

COMPOUND: O=c1cc(-c2ccc(O)c(O)c2)oc2cc(O[C@@H]3O[C@H](CO)[C@@H](O)[C@H](O)[C@H]3O)cc(O)c12 [Luteoloside]
Tmax [min]: 10

COMPOUND: COC(=O)C1=CO[C@@H](O[C@@H]2O[C@H](CO)[C@@H](O)[C@H](O)[C@H]2O)[C@@H]2[C@@H](C)[C@@H](O)C[C@H]12 [Loganin]
Tmax [min]: 16

For every record below, what is its Tmax?
1. O=c1c(O[C@@H]2O[C@H](CO)[C@@H](O)[C@H](O)[C@H]2O)c(-c2ccc(O)cc2)oc2cc(O)cc(O)c12 [Astragalin]
2. O=c1c(-c2ccc(O)cc2)coc2cc(O)cc(O)c12 [Genistein]
3. O=C(/C=C/c1ccc(O)c(O)c1)O[C@@H]1C[C@](O)(C(=O)O)C[C@@H](O)[C@H]1O [Chlorogenic acid]
4. O=c1cc(-c2ccc(O)c(O)c2)oc2cc(O)cc(O)c12 [Luteolin]
5. O=c1c(O)c(-c2ccc(O)c(O)c2)oc2cc(O)cc(O)c12 [Quercetin]
6. C[C@@H]1O[C@@H](OC[C@H]2O[C@@H](OCCc3ccc(O)c(O)c3)[C@H](O)[C@@H](O)[C@@H]2OC(=O)/C=C/c2ccc(O)c(O)c2)[C@H](O)[C@H](O)[C@H]1O [Forsythoside A]
7. C[C@@H]1O[C@@H](OC[C@H]2O[C@@H](Oc3c(-c4ccc(O)c(O)c4)oc4cc(O)cc(O)c4c3=O)[C@H](O)[C@@H](O)[C@@H]2O)[C@H](O)[C@H](O)[C@H]1O [Rutin]
8. O=C(/C=C/c1ccc(O)c(O)c1)O[C@@H]1C[C@](O)(C(=O)O)C[C@@H](OC(=O)/C=C/c2ccc(O)c(O)c2)[C@H]1O [3,5-dicaffeoylquinic acid]

### Response
1: 10; 2: 15; 3: 10; 4: 10; 5: 10; 6: 10; 7: 10; 8: 10

For every record below, what is its Tmax?
1. O=C(O)/C=C/c1ccc(O)c(O)c1 [Caffeic acid]
2. O=C(C=Cc1ccc(O)c(O)c1)OC1CC(O)(C(=O)O)CC(O)C1OC(=O)C=Cc1ccc(O)c(O)c1 (centres unmarked) [3,4-dicaffeoylquinic acid]

### Response
10
12

###

Would you mind telling me the reported Tmax of each entry?
Experiment: Rat in vivo pharmacokinetics study after oral administration of product A, B or C
Design: species or system Male Sprague-Dawley (SD) rats
Details: male, Sprague-Dawley, rat, plasma, po, 10 mL·kg^−1, rats, oral product C, 10 mL·kg^−1
One number for each entry, in min.

COMPOUND: O=c1c(O[C@@H]2O[C@H](CO)[C@H](O)[C@H](O)[C@H]2O)c(-c2ccc(O)c(O)c2)oc2cc(O)cc(O)c12 [Hyperoside]
Tmax, min: 10

COMPOUND: COc1cc(C[C@H]2C(=O)OC[C@@H]2Cc2ccc(OC)c(OC)c2)ccc1O [Arctigenin]
Tmax, min: 20

COMPOUND: COc1cc(C2OCC3C(c4ccc(O[C@@H]5O[C@H](CO)[C@@H](O)[C@H](O)[C@H]5O)c(OC)c4)OCC23)ccc1O (stereo partly drawn) [Pinoresinol-β-D-glucoside]
Tmax, min: 10

COMPOUND: O=c1c(O[C@@H]2O[C@H](CO)[C@@H](O)[C@H](O)[C@H]2O)c(-c2ccc(O)c(O)c2)oc2cc(O)cc(O)c12 [Isoquercitrin]
Tmax, min: 16

COMPOUND: O=c1c(-c2ccc(O)cc2)coc2cc(O[C@@H]3O[C@H](CO)[C@@H](O)[C@H](O)[C@H]3O)cc(O)c12 [Genistin]
Tmax, min: 20

Now for a further compound.
### Prompt Need Tmax, item O=C(O)[C@]1(O)C[C@@H](O)[C@@H](O)[C@H](O)C1 [Quinic acid]
### Response 10
